Test system: CAOV3
Experiment: Confirmatory qHTS for gynecologic anti-cancer compounds from libraries of approved drugs and bioactive compounds; note: nearly all actives have a fitted effect of over 55% in size; note: potency is the fitted concentration of half-maximal effect
Details: gynecologic cancer cell panel viability, ATPlite luminescence, 48 h; series mostly up to 57.6 µM
Description: National Center for Advancing Translational Sciences [NCATS] Assay Overview: Chemotherapeutic drug responses vary from cancer to cancer and from patient to patient. […] ATPlite is a luminescence based assay reliant on the conversion of a luciferase substrate to light in the presence of ATP. As a cytotoxic compound will suppress growth and decrease the number of cells, the concentration of ATP will decrease, and less light signal will be detected in the well. […]
Results filed as inconclusive are left out. Calls of active or inactive are those of the source. Calls come from the whole dose curve; as a rule, active = well fitted cell-killing curve with a large enough effect; inconclusive = small, poorly fitted or top-dose-only effect, or effect the other way; inactive = no such curve, though single readings can be large or run the other way. *1 amine or outer side, *2 acyl side, *3 side chain or, on linkers, in order; H or OH if unused. Where a SMILES comes first, the peptide text is derived from it. Bridges are numbered along the chain shown (N, C = ends). Roman numbers before positions name the chains, in order. [ ]: non-standard residue; d: D form. Actinocin(9to1) = Cc1c2oc3c(C)ccc(C(=O)[*:1])c3nc-2c(C(=O)[*:2])c(N)c1=O; NMeV = CN[C@H](C(=O)O)C(C)C; Sar = CNCC(=O)O
property: Potency

Here's what some known entries look like.
C[C@@]1(C(=O)Nc2ccc(F)nc2)CCCN1c1nc(Nc2cc(C3CC3)[nH]n2)c2cccn2n1 = 12.2 µM (active)
CC(C)n1nc(-c2cc3cc(O)ccc3[nH]2)c2c(N)ncnc21 = 19.3 µM (active)
CCc1c2c(nc3ccc(OC(=O)N4CCC(N5CCCCC5)CC4)cc13)-c1cc3c(c(=O)n1C2)COC(=O)[C@]3(O)CC = 19.3 µM (active)
Cc1c2oc3c(C)ccc(C(=O)N[C@@H]4C(=O)N[C@H](C(C)C)C(=O)N5CCC[C@H]5C(=O)N(C)CC(=O)N(C)[C@@H](C(C)C)C(=O)O[C@@H]4C)c3nc-2c(C(=O)N[C@@H]2C(=O)N[C@H](C(C)C)C(=O)N3CCC[C@H]3C(=O)N(C)CC(=O)N(C)[C@@H](C(C)C)C(=O)O[C@@H]2C)c(N)c1=O (I: T[dV]P[Sar][NMeV] / II: T[dV]P[Sar][NMeV]; ester I:1-I:C, II:1-II:C; linker I:N-II:N via Actinocin(9to1)) = 0.344 µM (active)
O=c1[nH]c(=O)n([C@H]2C[C@H](O)[C@@H](CO)O2)cc1Br = inactive

Please examine the following record next.
Supply reported Potency belonging to this molecule: Cc1nc(N)sc1-c1ccnc(Nc2ccc(N3CCOCC3)cc2)n1 3.43 µM (active)

* * *

tested on: CAOV3; experiment: Confirmatory qHTS for gynecologic anti-cancer compounds from libraries of approved drugs and bioactive compounds; details: gynecologic cancer cell panel viability, ATPlite luminescence, 48 h; series mostly up to 57.6 µM; note: nearly all actives have a fitted effect of over 55% in size
Inconclusive results are not listed. Active and inactive are the calls of the source. Calls come from the whole dose curve; as a rule, active = well fitted cell-killing curve with a large enough effect; inconclusive = small, poorly fitted or top-dose-only effect, or effect the other way; inactive = no such curve, though single readings can be large or run the other way.
Answer with one of the outcomes given here: 1 (active), 0 (inactive)

Observe how each entry below is paired with its result.
CC(C)C[C@H](NC(=O)[C@H](Cc1ccccc1)NC(=O)c1cnccn1)B(O)O = 1
NC(=O)Nc1cc(-c2cccc(F)c2)sc1C(=O)NC1CCCNC1 (stereo not drawn) = 1
CC(Oc1ccc2[nH]nc(/C=C/c3cnn(CCO)c3)c2c1)c1c(Cl)cncc1Cl (stereo not drawn) = 1
COc1cccc2c1C(=O)c1c(O)c3c(c(O)c1C2=O)C[C@@](O)(C(=O)CO)C[C@@H]3O[C@H]1C[C@H](N)[C@H](O)[C@H](C)O1 = 1
O=C(NOC[C@H](O)CO)c1ccc(F)c(F)c1Nc1ccc(I)cc1F = 0

Hi, do you know how CN(C)CCC(CSc1ccccc1)Nc1ccc(S(=O)(=O)NC(=O)c2ccc(N3CCN(Cc4ccccc4-c4ccc(Cl)cc4)CC3)cc2)cc1[N+](=O)[O-] (stereo not drawn) came out in this test? 1

Hi, do you know how CCc1c2c(nc3ccc(O)cc13)-c1cc3c(c(=O)n1C2)COC(=O)[C@]3(O)CC came out in this test? 1

Hi, do you know how COc1cc2c(Oc3ccc(-c4cnc(Nc5ccc(F)cc5)n(C)c4=O)cc3F)ccnc2cc1OCCCN1CCOCC1 came out in this test? 1

* * *

system: CAOV3; test: Confirmatory qHTS for gynecologic anti-cancer compounds from libraries of approved drugs and bioactive compounds; conditions: gynecologic cancer cell panel viability, ATPlite luminescence, 48 h; series mostly up to 57.6 µM; note: nearly all actives have a fitted effect of over 55% in size; note: potency is the fitted concentration of half-maximal effect
Inconclusive results are not listed. The source made the active and inactive calls. Calls follow the shape of the dose curve; as a rule, active = well fitted cell-killing curve with a large enough effect; inconclusive = small, poorly fitted or top-dose-only effect, or effect the other way; inactive = no such curve, though single readings can be large or run the other way.
property: Potency

Fc1cc(-c2cccc3ncc(-c4cnn(C5CCNCC5)c4)nc23)cc(F)c1CN1CCOCC1 = 27.3 µM (active)
OCCNC1CCCc2c1[nH]c1ccc(-c3ccccc3)cc21 (configuration not stated) = 24.3 µM (active)
CN1CCN(Cc2ccc(NC(=O)Nc3ccc(Oc4cc(NC(=O)C5CC5)ncn4)cc3)cc2C(F)(F)F)CC1 = 13.7 µM (active)
Nc1nc(Cl)nc2c1ncn2C1OC(CO)C(O)C1F (configuration not stated) = 0.544 µM (active)
COCCOc1ccc2c(c1)ncn2-c1ccc2cccc(N3CCC(N)CC3)c2n1 = inactive

Give Potency for COc1cc(C(=O)N2CCC(N3CCN(C)CC3)CC2)ccc1Nc1ncc2c(n1)N(C)c1ccccc1C(=O)N2C tested on CAOV3. 10.9 µM (active)

Give Potency for COc1cc2c(c(OC)c1OC)-c1ccc(OC)c(=O)cc1[C@@H](NC(C)=O)CC2 tested on CAOV3. inactive

* * *

test system: CAOV3; test: Confirmatory qHTS for gynecologic anti-cancer compounds from libraries of approved drugs and bioactive compounds; details: gynecologic cancer cell panel viability, ATPlite luminescence, 48 h; series mostly up to 57.6 µM; note: nearly all actives have a fitted effect of over 55% in size
Inconclusive results are not listed. Calls of active or inactive are those of the source. Calls come from the whole dose curve; as a rule, active = well fitted cell-killing curve with a large enough effect; inconclusive = small, poorly fitted or top-dose-only effect, or effect the other way; inactive = no such curve, though single readings can be large or run the other way.
Answer with one of the outcomes given here: active, inactive

Observe how each entry below is paired with its result.
CN(c1nccc(=O)[nH]1)C1CCN(c2nc3ccccc3n2Cc2ccc(F)cc2)CC1 = inactive
COc1cccc2c1C(=O)c1c(O)c3c(c(O)c1C2=O)C[C@@](O)(C(=O)CO)C[C@@H]3O[C@H]1C[C@H](N)[C@H](O[C@@H]2CCCCO2)[C@H](C)O1 = active
CCN(CC)CCNC(=O)c1c(C)[nH]c(/C=C2\C(=O)Nc3ccc(F)cc32)c1C = active

Hi, do you know how Cc1cc(SCc2sc(-c3ccc(C(F)(F)F)cc3)nc2C)ccc1OCC(=O)O came out in this test? inactive

* * *

System: CAOV3
Test: Confirmatory qHTS for gynecologic anti-cancer compounds from libraries of approved drugs and bioactive compounds; note: nearly all actives have a fitted effect of over 55% in size
Details: gynecologic cancer cell panel viability, ATPlite luminescence, 48 h; series mostly up to 57.6 µM
Description: National Center for Advancing Translational Sciences [NCATS] Assay Overview: Chemotherapeutic drug responses vary from cancer to cancer and from patient to patient. […] ATPlite is a luminescence based assay reliant on the conversion of a luciferase substrate to light in the presence of ATP. As a cytotoxic compound will suppress growth and decrease the number of cells, the concentration of ATP will decrease, and less light signal will be detected in the well. […]
Records with an inconclusive call do not appear. Activity calls are given as the source filed them. The call rests on the fitted dose curve; in most records, active means well fitted cell-killing curve with a large enough effect; inconclusive means small, poorly fitted or top-dose-only effect, or effect the other way; inactive means no such curve, though single readings can be large or run the other way.
Answer with one of the outcomes given here: active, inactive

Observe how each entry below is paired with its result.
Cn1cc(-c2[nH]c3cc(NC(=O)[C@H](N)C4CCCCC4)cc4c3c2C=NNC4=O)cn1 = active
CC[C@@]1(O)C(=O)OCc2c1cc1n(c2=O)Cc2cc3cc(O)ccc3nc2-1 = active
CC(=O)OC12COC1CC(O)C1(C)C(=O)C(O)C3=C(C)C(OC(=O)C(O)C(NC(=O)OC(C)(C)C)c4ccccc4)CC(O)(C(OC(=O)c4ccccc4)C21)C3(C)C (centres undefined) = inactive

Hi, do you know how CC[C@@]1(O)C(=O)OCc2c1cc1n(c2=O)Cc2cc3c(CN(C)C)c(O)ccc3nc2-1 came out in this test? active

Hi, do you know how Cc1[nH]c2ccccc2c1CCNCc1ccc(/C=C/C(=O)NO)cc1 came out in this test? active

Hi, do you know how O=C(Nc1cccnc1)N1CCC(Cc2cccc(Oc3ccc(C(F)(F)F)cn3)c2)CC1 came out in this test? inactive

Hi, do you know how COc1cc(-c2nn(C3CCC(N4CCN(C(C)=O)CC4)CC3)c3ncnc(N)c23)ccc1NC(=O)c1cc2ccccc2n1C (centres undefined) came out in this test? active

Hi, do you know how OC[C@H]1O[C@@H](n2cnc3c(=S)nc[nH]c32)[C@H](O)[C@@H]1O came out in this test? active

Hi, do you know how Cc1c(C)n(Cc2ccc(-c3ccccc3C(=O)O)cc2)c2ccc(C(=O)N[C@@H](C)c3ccc([N+](=O)[O-])cc3)cc12 came out in this test? inactive

* * *

system: CAOV3; assay: Confirmatory qHTS for gynecologic anti-cancer compounds from libraries of approved drugs and bioactive compounds; conditions: gynecologic cancer cell panel viability, ATPlite luminescence, 48 h; series mostly up to 57.6 µM; note: nearly all actives have a fitted effect of over 55% in size
Records with an inconclusive call do not appear. Calls of active or inactive are those of the source. The call rests on the fitted dose curve; in most records, active means well fitted cell-killing curve with a large enough effect; inconclusive means small, poorly fitted or top-dose-only effect, or effect the other way; inactive means no such curve, though single readings can be large or run the other way.
Answer with one of the outcomes given here: true (1) for active, false (0) for inactive

CNC1CCC(N(Cc2cccc(-c3ccncc3)c2)C(=O)c2sc3ccccc3c2Cl)CC1 (centres undefined) = true (1)
CC(C)C[C@H](NC(=O)[C@H](CCc1ccccc1)NC(=O)CN1CCOCC1)C(=O)N[C@@H](Cc1ccccc1)C(=O)N[C@@H](CC(C)C)C(=O)[C@@]1(C)CO1 = true (1)
CNC(=O)c1ccccc1Sc1ccc2c(/C=C/c3ccccn3)n[nH]c2c1 = true (1)

Hi, do you know how Cc1cc(C(=O)N2CCN(c3cccc(Cl)c3)CC2)n(-c2ccccc2)n1 came out in this test? false (0)

Hi, do you know how CC(C)C[C@H](NC(=O)[C@@H](NC(=O)c1cccc(-c2ccccc2)n1)[C@@H](C)O)B(O)O came out in this test? true (1)

Hi, do you know how Cc1csc(NC(=O)c2sc3nc4c(c(C(F)(F)F)c3c2N)CCC4)n1 came out in this test? true (1)

Hi, do you know how C#C[C@]1(O)CC[C@H]2[C@@H]3CCC4=CC(=O)CC[C@@H]4[C@H]3CC[C@@]21CC came out in this test? false (0)

Hi, do you know how C[C@@H](Oc1cc(-c2cnn(C3CCNCC3)c2)cnc1N)c1c(Cl)ccc(F)c1Cl came out in this test? true (1)

Hi, do you know how O=C(c1ccc(/C=C/c2n[nH]c3ccccc23)cc1)N1CCNCC1 came out in this test? true (1)
